For each record, write down the corresponding MIC.
test system: Staphylococcus aureus; test: Antibacterial activity against Staphylococcus aureus 991 assessed as inhibition of bacterial growth incubated for 18 hrs by broth microdilution method; format: functional
The answer is to be given in mg/L; state only the numeric part.

For the record CC1(C)S[C@@H]2[C@H](NC(=O)[C@H](N)c3ccccc3)C(=O)N2[C@H]1C(=O)O [AMPICILLIN] , what value of MIC is listed for Staphylococcus aureus?
4

For the record "CCCc1c(Cl)c(OC)cc2c1Oc1c(Cl)c(O)c(Cl)c(CCC)c1C(=O)O2" , what value of MIC is listed for Staphylococcus aureus?
2

----------
system: Staphylococcus aureus; assay: Antibacterial activity against Staphylococcus aureus 3090 assessed as inhibition of bacterial growth incubated for 18 hrs by broth microdilution method; format: functional
PROPERTY MEASURED: MIC

Quick one: MIC for "CCCc1c(Cl)c(OC)c(Cl)c2c1OC(=O)c1c(CCC)c(Cl)c(O)c(Cl)c1O2" ?
8 µg/mL

Quick one: MIC for "CCCc1c(Cl)c(OC)c(Cl)c2c1Oc1c(Cl)c(O)c(Cl)c(CCC)c1C(=O)O2" ?
1 µg/mL

Quick one: MIC for "CCCc1c(Cl)c(O)cc2c1Oc1cc(O)c(Cl)c(CCC)c1C(=O)O2" ?
4 µg/mL

Quick one: MIC for "CCCc1c(Cl)c(OC)cc2c1Oc1c(Cl)c(O)c(Cl)c(CCC)c1C(=O)O2" ?
2 µg/mL

Quick one: MIC for "CCCc1c(O)c(Oc2c(Cl)c(O)c(Cl)c(CCC)c2C(=O)OC)c(Cl)c(OC)c1Cl" ?
8 µg/mL

Quick one: MIC for CCCCC/C=C1/C(=O)C(CC=C(C)C)=C(C)C1O (stereo unspecified) ?
> 128 µg/mL

Quick one: MIC for "CCCc1c(O)c(Oc2c(Cl)c(O)c(Cl)c3c2C(=O)O[C@H](C)C3)cc(OC)c1Cl" ?
8 µg/mL

Quick one: MIC for "COc1c(Cl)c(O)c(Cl)c2c1C(=O)O[C@H](C)C2" ?
> 128 µg/mL

Quick one: MIC for "CCCc1c(Cl)c(O)c(Cl)c2c1Oc1c(Cl)c(O)c(Cl)c(CCC)c1C(=O)O2" ?
4 µg/mL

Quick one: MIC for "CCCc1c(Cl)c(OC)c(Cl)c(Oc2c(Cl)c(O)c(Cl)c3c2C(=O)O[C@H](C)C3)c1OC" ?
4 µg/mL

Quick one: MIC for "CCCc1cc(Oc2c(O)c(Cl)c(O)c(Cl)c2CCC)c(Cl)c(OC)c1Cl" ?
2 µg/mL

----------
tested on: Enterococcus faecium; assay: Antibacterial activity against Enterococcus faecium 36711 assessed as inhibition of bacterial growth incubated for 18 hrs by broth microdilution method; type: functional
PROPERTY MEASURED: MIC

Quick one: MIC for "CCCc1c(Cl)c(O)c(Cl)c2c1Oc1c(Cl)c(O)c(Cl)c(CCC)c1C(=O)O2" ?
4 µg/mL

Quick one: MIC for "CC1(C)S[C@@H]2[C@H](NC(=O)[C@H](N)c3ccccc3)C(=O)N2[C@H]1C(=O)O" ?
> 64 µg/mL

Quick one: MIC for "CCCc1c(Cl)c(OC)c(Cl)c(Oc2c(Cl)c(O)c(Cl)c3c2C(=O)O[C@H](C)C3)c1OC" ?
8 µg/mL

Quick one: MIC for "COc1c(Cl)c(O)c(Cl)c2c1C(=O)O[C@H](C)C2" ?
> 128 µg/mL

----------
system: Enterococcus faecalis; assay: Antibacterial activity against Enterococcus faecalis ATCC 29212 assessed as inhibition of bacterial growth incubated for 18 hrs by broth microdilution method; type: functional
Mark Fulfilled only for MIC values smaller than 20 mg/L; exact matches and larger values are Not fulfilled.

Answer whether the compound "CCCc1c(O)c(Oc2c(Cl)c(O)c(Cl)c(CCC)c2C(=O)OC)c(Cl)c(OC)c1Cl" has MIC strictly less than 20 mg/L
Fulfilled

Answer whether the compound "CCCc1cc(Oc2c(O)c(Cl)c(O)c(Cl)c2CCC)c(Cl)c(OC)c1Cl" has MIC strictly less than 20 mg/L
Fulfilled

Answer whether the compound CCCCC/C=C1/C(=O)C(CC=C(C)C)=C(C)C1O (configuration not stated) has MIC strictly less than 20 mg/L
Not fulfilled

Answer whether the compound "CC1(C)S[C@@H]2[C@H](NC(=O)[C@H](N)c3ccccc3)C(=O)N2[C@H]1C(=O)O" has MIC strictly less than 20 mg/L
Fulfilled

Answer whether the compound "CCCc1c(Cl)c(OC)c(Cl)c2c1Oc1c(Cl)c(O)c(Cl)c(CCC)c1C(=O)O2" has MIC strictly less than 20 mg/L
Fulfilled

Answer whether the compound "CCCc1c(O)c(Oc2c(Cl)c(O)c(Cl)c3c2C(=O)O[C@H](C)C3)cc(OC)c1Cl" has MIC strictly less than 20 mg/L
Not fulfilled

Answer whether the compound "CCCc1c(Cl)c(O)cc2c1Oc1cc(O)c(Cl)c(CCC)c1C(=O)O2" has MIC strictly less than 20 mg/L
Fulfilled

----------
tested on: Staphylococcus aureus; assay: Antibacterial activity against Staphylococcus aureus 991 assessed as inhibition of bacterial growth incubated for 18 hrs by broth microdilution method; assay type: functional
For each record, write down the corresponding MIC.
The answer is to be given in µg/mL; state only the numeric part.

For the record "CCCc1c(O)c(Oc2c(Cl)c(O)c(Cl)c3c2C(=O)O[C@H](C)C3)cc(OC)c1Cl" , what value of MIC is listed for Staphylococcus aureus?
8

For the record "CCCc1c(Cl)c(OC)c(Cl)c(Oc2c(Cl)c(O)c(Cl)c3c2C(=O)O[C@H](C)C3)c1OC" , what value of MIC is listed for Staphylococcus aureus?
4

For the record "CCCc1c(O)c(Oc2c(Cl)c(O)c(Cl)c(CCC)c2C(=O)OC)c(Cl)c(OC)c1Cl" , what value of MIC is listed for Staphylococcus aureus?
8

For the record "CCCc1cc(Oc2c(O)c(Cl)c(O)c(Cl)c2CCC)c(Cl)c(OC)c1Cl" , what value of MIC is listed for Staphylococcus aureus?
2

For the record "CCCc1c(Cl)c(OC)c(Cl)c2c1OC(=O)c1c(CCC)c(Cl)c(O)c(Cl)c1O2" , what value of MIC is listed for Staphylococcus aureus?
16

For the record "CCCc1c(Cl)c(O)cc2c1Oc1cc(O)c(Cl)c(CCC)c1C(=O)O2" , what value of MIC is listed for Staphylococcus aureus?
2

For the record "CCCc1c(Cl)c(O)c(Cl)c2c1Oc1c(Cl)c(O)c(Cl)c(CCC)c1C(=O)O2" , what value of MIC is listed for Staphylococcus aureus?
2

For the record "CCCc1c(Cl)c(OC)c(Cl)c2c1Oc1c(Cl)c(O)c(Cl)c(CCC)c1C(=O)O2" , what value of MIC is listed for Staphylococcus aureus?
1

----------
system: Staphylococcus aureus; assay: Antibacterial activity against Staphylococcus aureus 6917 assessed as inhibition of bacterial growth incubated for 18 hrs by broth microdilution method; assay type: functional
Mark Condition met only for MIC values smaller than 4 µg/mL; exact matches and larger values are Condition not met.

Answer whether the molecule CC1(C)S[C@@H]2[C@H](NC(=O)[C@H](N)c3ccccc3)C(=O)N2[C@H]1C(=O)O [AMPICILLIN] has MIC strictly less than 4 µg/mL
Condition not met

Answer whether the molecule "CCCc1c(O)c(Oc2c(Cl)c(O)c(Cl)c(CCC)c2C(=O)OC)c(Cl)c(OC)c1Cl" has MIC strictly less than 4 µg/mL
Condition not met

Answer whether the molecule "CCCc1c(Cl)c(O)cc2c1Oc1cc(O)c(Cl)c(CCC)c1C(=O)O2" has MIC strictly less than 4 µg/mL
Condition not met

Answer whether the molecule "COc1c(Cl)c(O)c(Cl)c2c1C(=O)O[C@H](C)C2" has MIC strictly less than 4 µg/mL
Condition not met

Answer whether the molecule "CCCc1c(Cl)c(OC)c(Cl)c(Oc2c(Cl)c(O)c(Cl)c3c2C(=O)O[C@H](C)C3)c1OC" has MIC strictly less than 4 µg/mL
Condition not met

Answer whether the molecule "CCCc1c(Cl)c(OC)c(Cl)c2c1Oc1c(Cl)c(O)c(Cl)c(CCC)c1C(=O)O2" has MIC strictly less than 4 µg/mL
Condition met

Answer whether the molecule CCCCC/C=C1/C(=O)C(CC=C(C)C)=C(C)C1O (configuration not stated) has MIC strictly less than 4 µg/mL
Condition not met

Answer whether the molecule "CCCc1c(O)c(Oc2c(Cl)c(O)c(Cl)c3c2C(=O)O[C@H](C)C3)cc(OC)c1Cl" has MIC strictly less than 4 µg/mL
Condition not met

Answer whether the molecule "CCCc1c(Cl)c(O)c(Cl)c2c1Oc1c(Cl)c(O)c(Cl)c(CCC)c1C(=O)O2" has MIC strictly less than 4 µg/mL
Condition not met

Answer whether the molecule "CCCc1cc(Oc2c(O)c(Cl)c(O)c(Cl)c2CCC)c(Cl)c(OC)c1Cl" has MIC strictly less than 4 µg/mL
Condition met

----------
test system: Enterococcus faecalis; assay: Antibacterial activity against Enterococcus faecalis ATCC 29212 assessed as inhibition of bacterial growth incubated for 18 hrs by broth microdilution method; type: functional
For each record, write down the corresponding MIC.
The answer is to be given in µg/mL; state only the numeric part.

Quick one: MIC for CN[C@H](CC(C)C)C(=O)N[C@H]1C(=O)N[C@@H](CC(N)=O)C(=O)N[C@H]2C(=O)N[C@H]3C(=O)N[C@H](C(=O)N[C@H](C(=O)O)c4cc(O)cc(O)c4-c4cc3ccc4O)[C@H](O)c3ccc(c(Cl)c3)Oc3cc2cc(c3O[C@@H]2O[C@H](CO)[C@@H](O)[C@H](O)[C@H]2O[C@H]2C[C@](C)(N)[C@H](O)[C@H](C)O2)Oc2ccc(cc2Cl)[C@H]1O [VANCOMYCIN] ?
2

Quick one: MIC for "CCCc1c(Cl)c(OC)c(Cl)c(Oc2c(Cl)c(O)c(Cl)c3c2C(=O)O[C@H](C)C3)c1OC" ?
8

Quick one: MIC for "CCCc1c(Cl)c(O)c(Cl)c2c1Oc1c(Cl)c(O)c(Cl)c(CCC)c1C(=O)O2" ?
2

Quick one: MIC for "CCCc1c(Cl)c(OC)cc2c1Oc1c(Cl)c(O)c(Cl)c(CCC)c1C(=O)O2" ?
2

Quick one: MIC for "CCCc1c(Cl)c(OC)c(Cl)c2c1OC(=O)c1c(CCC)c(Cl)c(O)c(Cl)c1O2" ?
16
